Tested on: rats
Assay: Ca retention (Ca balance) in growing rats
Type: in vivo, rat
Details: versus control; male CD rats, daily subcutaneous, 10 days
Items are presented alongside their recorded Ca retention % increase.
Experimental endpoint: Ca retention % increase

substance="Ser-Val-Ser-Glu-Ile-Gln-Leu-Met-His-Asn-Leu-Gly-Lys-His-Leu-Asn-Ser-Met-Glu-Arg-Val-Glu-Trp-Leu-Arg-Lys-Lys-Leu-Gln-Asp-Val-His-Asn-Phe-Val-Ala (SVSEIQLMHNLGKHLNSMERVEWLRKKLQDVHNFVA) [hPTH(1-36)]" measured=123%
substance="hPTH(1-38): known human parathyroid hormone fragment, amino acids 1-38, state of the art (SVSEIQLMHNLGKHLNSMERVEWLRKKLQDVHNFVALG; Parathyroid hormone; UniProt P01270 32-69, looked up, fragment) [reference compound]" measured=85%
substance="hPTH(1-37): known human parathyroid hormone fragment, amino acids 1-37 (WO 91/06564) (SVSEIQLMHNLGKHLNSMERVEWLRKKLQDVHNFVAL; Parathyroid hormone; UniProt P01270 32-68, looked up, fragment) [reference compound]" measured=94%
substance="Ser-Val-Ser-Glu-Ile-Gln-Leu-Met-His-Asn-Leu-Gly-Lys-His-Leu-Asn-Ser-Met-Glu-Arg-Val-Glu-Trp-Leu-Arg-Lys-Lys-Leu-Gln-Asp-Val-His-Asn-Phe-Val (SVSEIQLMHNLGKHLNSMERVEWLRKKLQDVHNFV) [hPTH(1-35)]" measured=119%
